biological target: T1, human LAP-TGFβ1 (construct not stated) (human, UniProt P01137 30-390); assay: KinExA, mAb as constant binding partner
T1 construct: also called human LAP-TGFβ isoform 1; titrant
T1 sequence (P01137 30-390 limits assumed): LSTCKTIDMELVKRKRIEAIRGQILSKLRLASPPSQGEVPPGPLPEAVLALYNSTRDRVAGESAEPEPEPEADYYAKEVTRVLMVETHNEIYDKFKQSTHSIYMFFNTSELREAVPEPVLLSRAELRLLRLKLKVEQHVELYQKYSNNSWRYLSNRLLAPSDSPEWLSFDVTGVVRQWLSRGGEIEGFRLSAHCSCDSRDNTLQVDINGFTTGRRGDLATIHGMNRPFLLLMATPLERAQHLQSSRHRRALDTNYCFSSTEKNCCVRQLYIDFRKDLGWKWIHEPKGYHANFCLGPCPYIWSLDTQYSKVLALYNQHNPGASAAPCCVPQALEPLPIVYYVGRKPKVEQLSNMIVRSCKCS

Binder	Units label	kon
11BLM (antibody, human IgG1, kappa, L234A L235A, V domains shown, IgG1 L234A L235A D265S/kappa; also called 74BLH; 47BMD) VH: EVQLVQSGAEVKKPGASVKVSCKASGYTFTSYDMHWVRQAPGQGLEWMGRIDPQSGGIRYAQKFQGRATLTVDTSTSTAYMELSRLRSDDTAVYYCARWDYGGYFDVWGQGTLVTVSS VL: DIQMTQSPSSLSASVGDRVTITCRASQDIYNYLNWYQQKPGKAVKLLIYYTSVLETGVPSRFSGSGSGTDYTLTISSLQPEDFATYFCQQGDTLPWTFGQGTKLEIKR	M⁻¹ s⁻¹	1.63e+07
